Can you tell me Vmax for the items I'm about to list?
biological target: Multidrug and toxin extrusion protein 1 (Homo sapiens); assay: Substrate activity at MATE1 (unknown origin) expressed in HEK293 cells assessed as Vmax (maximum transport velocity) by HPLC-MS/MS analysis; type: cell-based
Sequence (Q96FL8 whole entry): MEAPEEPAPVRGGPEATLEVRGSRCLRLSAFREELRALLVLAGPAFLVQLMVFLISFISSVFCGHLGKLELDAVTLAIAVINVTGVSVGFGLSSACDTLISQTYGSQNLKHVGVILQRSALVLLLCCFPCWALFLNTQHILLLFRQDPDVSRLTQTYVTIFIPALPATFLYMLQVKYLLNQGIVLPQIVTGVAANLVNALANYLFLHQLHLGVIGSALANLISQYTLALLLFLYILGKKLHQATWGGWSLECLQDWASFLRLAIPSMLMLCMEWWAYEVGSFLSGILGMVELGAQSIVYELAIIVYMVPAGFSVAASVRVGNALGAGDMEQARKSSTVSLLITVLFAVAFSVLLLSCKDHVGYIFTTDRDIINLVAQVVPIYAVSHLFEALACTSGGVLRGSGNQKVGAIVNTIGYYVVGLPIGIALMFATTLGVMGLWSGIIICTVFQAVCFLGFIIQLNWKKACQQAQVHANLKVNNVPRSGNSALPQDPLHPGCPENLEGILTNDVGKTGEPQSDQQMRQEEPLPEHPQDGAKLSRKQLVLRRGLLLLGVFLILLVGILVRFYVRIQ

Query string: What does the data say about its Vmax? Entry: `Cc1ncc(CO)c(CO)c1O`
Result string: 10014 pmol/min

Query string: What does the data say about its Vmax? Entry: CC(CCc1ccc(O)cc1)NCCc1ccc(O)c(O)c1 (stereo not drawn)
Result string: 2586 pmol/min

Query string: What does the data say about its Vmax? Entry: `CN[C@@H]1CCc2[nH]c3ccc(C(N)=O)cc3c2C1`
Result string: 4568 pmol/min

====

molecular target: Multidrug and toxin extrusion protein 2 (Homo sapiens); assay: Substrate activity at MATE2-K (unknown origin) expressed in HEK293 cells assessed as intrinsic clearance by measuring ratio of Vmax (maximum transport velocity) over Km measured per mg of protein by HPLC-MS/MS analysis; format: cell-based
Sequence (Q86VL8 whole entry): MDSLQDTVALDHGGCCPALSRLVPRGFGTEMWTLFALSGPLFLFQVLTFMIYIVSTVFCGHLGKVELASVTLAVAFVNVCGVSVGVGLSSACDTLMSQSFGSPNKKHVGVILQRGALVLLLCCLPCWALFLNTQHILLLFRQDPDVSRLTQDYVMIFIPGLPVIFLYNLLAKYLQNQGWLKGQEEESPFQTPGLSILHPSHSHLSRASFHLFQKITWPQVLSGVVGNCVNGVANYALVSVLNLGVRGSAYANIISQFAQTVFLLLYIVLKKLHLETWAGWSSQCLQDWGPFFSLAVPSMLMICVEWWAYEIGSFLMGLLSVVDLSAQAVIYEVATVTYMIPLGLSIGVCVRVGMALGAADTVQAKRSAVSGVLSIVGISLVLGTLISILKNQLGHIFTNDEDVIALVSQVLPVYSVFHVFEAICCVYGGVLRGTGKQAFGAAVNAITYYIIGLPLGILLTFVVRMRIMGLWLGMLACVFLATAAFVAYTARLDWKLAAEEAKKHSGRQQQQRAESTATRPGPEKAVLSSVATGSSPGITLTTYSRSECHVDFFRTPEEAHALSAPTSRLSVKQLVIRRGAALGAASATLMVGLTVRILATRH
The threshold is inclusive: CL of exactly 3 µL/min counts as 1; values below receive -1.

Query string: Please indicate if the recorded CL for `NCCc1ccc(O)c(O)c1` meets or exceeds 3 µL/min.
Result string: -1

Query string: Please indicate if the recorded CL for CCN1CCCC1CNC(=O)c1cc(S(=O)(=O)CC)c(N)cc1OC (racemic) [AMISULPRIDE] meets or exceeds 3 µL/min.
Result string: 1

Query string: Please indicate if the recorded CL for NC[C@H](O)c1ccc(O)c(O)c1 [NOREPINEPHRINE] meets or exceeds 3 µL/min.
Result string: -1

Query string: Please indicate if the recorded CL for `NCCc1ccc(O)cc1` meets or exceeds 3 µL/min.
Result string: -1

Query string: Please indicate if the recorded CL for CC(CCc1ccc(O)cc1)NCCc1ccc(O)c(O)c1 (stereo unspecified) meets or exceeds 3 µL/min.
Result string: 1

Query string: Please indicate if the recorded CL for `[H]/N=C(/N)N/C(=N/[H])NCCc1ccccc1` meets or exceeds 3 µL/min.
Result string: 1

Query string: Please indicate if the recorded CL for `CN(C)CCc1c[nH]c2ccc(C[C@@H]3COC(=O)N3)cc12` meets or exceeds 3 µL/min.
Result string: 1

Query string: Please indicate if the recorded CL for CCN1CCCC1CNC(=O)c1cc(S(N)(=O)=O)ccc1OC (stereo unspecified) [SULPIRIDE] meets or exceeds 3 µL/min.
Result string: 1

Query string: Please indicate if the recorded CL for CNC[C@H](O)c1ccc(O)c(O)c1 [EPINEPHRINE] meets or exceeds 3 µL/min.
Result string: -1

Query string: Please indicate if the recorded CL for `CN(C)C(=O)Oc1cccc([N+](C)(C)C)c1` meets or exceeds 3 µL/min.
Result string: 1

Query string: Please indicate if the recorded CL for `Cc1ncc(C[n+]2csc(CCO)c2C)c(N)n1` meets or exceeds 3 µL/min.
Result string: 1

Query string: Please indicate if the recorded CL for `CN(C)CCc1c[nH]c2ccc(C[C@H]3COC(=O)N3)cc12` meets or exceeds 3 µL/min.
Result string: 1

Query string: Please indicate if the recorded CL for `Cc1ncc(CO)c(CN)c1O` meets or exceeds 3 µL/min.
Result string: -1

Query string: Please indicate if the recorded CL for CN(C)CCc1c[nH]c2ccc(CC3COC(=O)N3)cc12 (racemic) meets or exceeds 3 µL/min.
Result string: 1

Query string: Please indicate if the recorded CL for `C[C@H]1N=C(N(C)C)N=C(N)N1` meets or exceeds 3 µL/min.
Result string: 1

Query string: Please indicate if the recorded CL for `Cc1ncc(CO)c(CO)c1O` meets or exceeds 3 µL/min.
Result string: -1

Query string: Please indicate if the recorded CL for `CN[C@@H]1CCc2[nH]c3ccc(C(N)=O)cc3c2C1` meets or exceeds 3 µL/min.
Result string: 1

Query string: Please indicate if the recorded CL for `COCCn1c2c([n+](Cc3cnccn3)c1C)C(=O)c1ccccc1C2=O` meets or exceeds 3 µL/min.
Result string: 1

Query string: Please indicate if the recorded CL for CC(=O)OC(C)C[N+](C)(C)C (stereo unspecified) meets or exceeds 3 µL/min.
Result string: -1

Query string: Please indicate if the recorded CL for `CNC[C@H](O)c1cccc(O)c1` meets or exceeds 3 µL/min.
Result string: -1
